# assayed.system: Histone-lysine N-methyltransferase EHMT2 (Homo sapiens)
# measurement.protocol: qHTS Assay for Inhibitors of Histone Lysine Methyltransferase G9a; further: nearly all actives have a fitted effect of over 75% in size; on activity, negative = inhibition: on the % scale 0 is the no-effect control and ±100 the full control effect
# condition.info: G9a H3K9 monomethylation, AlphaScreen, 2 h; series mostly up to 59 µM
Hit rate of the full screen: of about 350,000 compounds, about 31,000 (8.9%) were called active. Not shown: some 15% with an inconclusive outcome. This excerpt belongs to a sample that is enriched for actives.
Parameter activity, negative = inhibition: see the listing below.

compound	measured.quantity	obs.value
CCOC(=O)C1=C(C)Nc2sc(C(=O)c3ccc(Br)cc3)c(N)c2C1c1ccc(C(=O)OC)cc1 (stereo unspecified)	activity, negative = inhibition	0.599% [at 12.7 µM] (inactive)
COc1ccc(CNC(=O)COc2ccccc2C(=O)c2cnn(-c3ccccc3)c2)cc1OC	activity, negative = inhibition	13.3% [at 12.7 µM] (inactive)
Cc1ccccc1-c1cc(C(=O)NCc2cccs2)n(CC2CC(c3cccnc3)=NO2)n1 (stereo unspecified)	activity, negative = inhibition	-0.783% [at 0.501 µM] (inactive)

Ask: Item CC(Oc1ccc(Br)cc1)C(=O)NC1CCCCCC1 (stereo unspecified) has what recorded activity, negative = inhibition?
Reply: 35.3% [at 12.7 µM] (inactive)

Ask: Give its activity, negative = inhibition value. Item: `CCc1nnc(NS(=O)(=O)c2ccc(NS(=O)(=O)c3ccccc3)cc2)s1`
Reply: 2.62% [at 12.7 µM] (inactive)

Ask: Tell me the measured activity, negative = inhibition of `Cc1ccccc1OCC(=O)Nc1ccc2c(c1)ncn2C` , please.
Reply: -10.2% [at 0.501 µM] (inactive)

Ask: Field request: activity, negative = inhibition | item: `COc1ccc(C(=O)NCc2nnc(SCCOc3ccccc3)n2C)cc1`
Reply: 13.9% [at 12.7 µM] (inactive)

Ask: May I ask what activity, negative = inhibition has been recorded for `COc1ccc(NC(=O)CN(C)C(=O)c2ccc(NC3CC3)c([N+](=O)[O-])c2)cc1` ?
Reply: -3.73% [at 2.33 µM] (inactive)

Ask: So what's the measured activity, negative = inhibition for this one? `O=C1C=C(c2cccc(Br)c2)C[C@@H](c2ccc(F)cc2)C1`
Reply: -5.82% [at 0.501 µM] (inactive)

Ask: // activity, negative = inhibition lookup, key: `COc1cccc(OCC(=O)Nc2ccccc2C(N)=O)c1`
Reply: 6.62% [at 12.7 µM] (inactive)

Ask: Quick one: activity, negative = inhibition of `O=C(NCCC1=CCCCC1)c1ccc(-n2cncn2)cc1` ?
Reply: 3.99% [at 12.7 µM] (inactive)

* * *

# assayed.system: Histone-lysine N-methyltransferase EHMT2 (Homo sapiens) (UniProt Q96KQ7)
# Sequence (Q96KQ7 913-1193 limits assumed): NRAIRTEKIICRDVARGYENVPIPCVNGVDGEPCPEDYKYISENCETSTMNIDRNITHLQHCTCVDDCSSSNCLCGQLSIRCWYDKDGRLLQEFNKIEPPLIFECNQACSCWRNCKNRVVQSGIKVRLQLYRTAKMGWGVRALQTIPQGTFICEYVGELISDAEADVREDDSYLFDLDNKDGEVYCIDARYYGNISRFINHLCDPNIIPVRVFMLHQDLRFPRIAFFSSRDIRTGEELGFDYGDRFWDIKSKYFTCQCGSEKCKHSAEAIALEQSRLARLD
# measurement.protocol: qHTS Assay for Inhibitors of Histone Lysine Methyltransferase G9a; further: nearly all actives have a fitted effect of over 75% in size
# condition.info: G9a H3K9 monomethylation, AlphaScreen, 2 h; series mostly up to 59 µM
Out of some 350,000 compounds screened, about 31,000 (8.9%) were called active. Not shown: some 15% with an inconclusive outcome. Calls come from the whole dose curve; as a rule, active = well fitted inhibition curve with a large enough effect; inconclusive = small, poorly fitted or top-dose-only effect; inactive = no such curve, though single readings can be large or run the other way. This excerpt belongs to a sample that is enriched for actives.
Valid outcomes are listed here; reply with one: y (active), n (inactive)

Example cases with answers are listed next.
molecule	assayed.system	label.value
CCCC(=O)NC(=S)Nc1ccc(CN2CCOCC2)cc1	Histone-lysine N-methyltransferase EHMT2 (Homo sapiens) (UniProt Q96KQ7)	n
CC(C)(C)SCCSC1=CC(=O)CC(c2ccccc2)C1 (stereo not given)	Histone-lysine N-methyltransferase EHMT2 (Homo sapiens) (UniProt Q96KQ7)	n
CCSc1ncc(Cl)c(C(=O)Nc2c(C(=O)c3ccccc3)oc3ccccc23)n1	Histone-lysine N-methyltransferase EHMT2 (Homo sapiens) (UniProt Q96KQ7)	n
COC(=O)[C@H](Cc1ccccc1)NC(=O)[C@@H]1C[C@H]1[C@@H](NC(=O)OCc1ccccc1)c1ccccc1	Histone-lysine N-methyltransferase EHMT2 (Homo sapiens) (UniProt Q96KQ7)	n
CN(Cc1ccccc1)C(=O)CCS(=O)(=O)c1cc(Br)cc2c1N(C(=O)C1CC1)CC2	Histone-lysine N-methyltransferase EHMT2 (Homo sapiens) (UniProt Q96KQ7)	n
CCN1CCN(c2cc(C)c3cc(NC(=O)c4cc(Cl)ccc4OC)ccc3n2)CC1	Histone-lysine N-methyltransferase EHMT2 (Homo sapiens) (UniProt Q96KQ7)	n
Cc1cc(N2CCOCC2)nc2ccc(NC(=S)N3CCN(Cc4ccccc4)CC3)cc12	Histone-lysine N-methyltransferase EHMT2 (Homo sapiens) (UniProt Q96KQ7)	y
COc1ccc(NC(=S)NCCN2CCC(C)CC2)cc1	Histone-lysine N-methyltransferase EHMT2 (Homo sapiens) (UniProt Q96KQ7)	n
COCc1[nH][nH]c(=O)c1C=Nc1ccc(F)cc1F	Histone-lysine N-methyltransferase EHMT2 (Homo sapiens) (UniProt Q96KQ7)	y

We now examine a further molecule.
Ask: Assay outcome for `O=C(NCc1ccccc1)[C@H]1C[C@@H]1[C@H](NP(=O)(c1ccccc1)c1ccccc1)c1ccccc1` : what was it?
Reply: y

* * *

# assayed.system: Histone-lysine N-methyltransferase EHMT2 (Homo sapiens)
# measurement.protocol: qHTS Assay for Inhibitors of Histone Lysine Methyltransferase G9a; further: nearly all actives have a fitted effect of over 75% in size; on activity, negative = inhibition: on the % scale 0 is the no-effect control and ±100 the full control effect
# condition.info: G9a H3K9 monomethylation, AlphaScreen, 2 h; series mostly up to 59 µM
Among all 350,000 compounds or so, about 31,000 (8.9%) were called active. Roughly 15% stayed inconclusive and do not appear here. This is one part of a sample in which actives are shown more often than they occur.
Item-by-item account of activity, negative = inhibition

Solved cases below.
compound	activity, negative = inhibition
Cc1n[nH]c(=O)c2c(NC(=O)COC(=O)c3ncc(Cl)c(Cl)c3Cl)oc(C)c12	5.9% [at 0.501 µM] (inactive)
Cc1cc(C)n2nc(C(=O)OCC(=O)N(CCC#N)c3ccc(F)cc3)nc2n1	12.1% [at 0.501 µM] (inactive)
CC(C)(C)OC(=O)Nc1ccc([C@@H](NC(=O)OC(C)(C)C)C(=O)OC(C)(C)C)cc1	9.51% [at 0.501 µM] (inactive)
CC(OC(=O)c1ccccc1NCCO)C(=O)Nc1ccnn1C(C)C (configuration not stated)	-12.9% [at 12.7 µM] (inactive)
CC(=O)N1CCCc2ccc(NS(=O)(=O)c3ccc(F)cc3F)cc21	-4.23% [at 12.7 µM] (inactive)
CCOc1ccc(S(=O)(=O)Nc2cccc(C(=O)NCC3(N4CCCCC4)CCCCC3)c2)cc1	19.1% [at 0.501 µM] (inactive)
CCOC(=O)c1c(C)[nH]c(C(=O)OCC(=O)c2ccc(OC)cc2OC)c1C	4.02% [at 0.501 µM] (inactive)
C=C1CCC(N(O)c2cc(C)on2)C(=C)CCC2C1CC2(C)C (configuration not stated)	-0.801% [at 0.501 µM] (inactive)

Ask: Could you share which activity, negative = inhibition value was measured for CCOc1ccc(S(=O)(=O)N2CCCCC2)cc1NC(=O)CN1CCCC1c1cccs1 (configuration not stated) ?
Reply: 19.5% [at 2.33 µM] (inactive)

Ask: Entry `CCC(=O)c1ccc(OCC(=O)Nc2ccc(N3CCCCC3)cc2)cc1` has what activity, negative = inhibition?
Reply: 13.1% [at 12.7 µM] (inactive)

Ask: Give its activity, negative = inhibition value. Item: `COc1ccc(C(=O)Nc2ccc(F)cc2F)cc1`
Reply: 29.4% [at 12.7 µM] (inactive)

* * *

# assayed.system: Histone-lysine N-methyltransferase EHMT2 (Homo sapiens) (UniProt Q96KQ7)
# measurement.protocol: qHTS Assay for Inhibitors of Histone Lysine Methyltransferase G9a; further: nearly all actives have a fitted effect of over 75% in size; further: potency means the concentration at half of the fitted maximal effect
# condition.info: G9a H3K9 monomethylation, AlphaScreen, 2 h; series mostly up to 59 µM
In all, about 350,000 compounds went through this assay and about 31,000 (8.9%) were called active. Roughly 15% stayed inconclusive and do not appear here. The sample holds actives, similar compounds and a random draw of the others, so the mix is not that of the screen.
measured.quantity: Potency

compound	obs.value
Cc1cc(C)c2sc(NC(=O)c3ccc(S(=O)(=O)N4CCCC4)cc3)nc2c1	inactive
O=C(NCCCO)C(=O)Nc1c2c(nn1-c1ccccc1)CSC2	10 µM (active)
O=C(NCCCO)C(=O)Nc1c2c(nn1-c1ccc(F)cc1)CSC2	11.2 µM (active)
COc1ccc(-n2nc3c(c2NC(=O)c2ccc(N4C(=O)CCC4=O)cc2)CSC3)cc1	inactive
CC(C)C(=O)Nc1c2c(nn1-c1ccccc1)CSC2	inactive
O=C(CC1Nc2ccccc2NC1=O)Nc1ccccc1NC(=O)CC1Nc2ccccc2NC1=O (stereo not given)	inactive

Ask: // lookup Potency | system=Histone-lysine N-methyltransferase EHMT2 (Homo sapiens) (UniProt Q96KQ7) | key= O=C(Nc1c2c(nn1-c1ccc(F)cc1)CS(=O)C2)C12CC3CC(CC(C3)C1)C2 (stereo not given)
Reply: inactive

Ask: Value wanted: Potency (Histone-lysine N-methyltransferase EHMT2 (Homo sapiens) (UniProt Q96KQ7)) of entry CCOC(=O)c1ccccc1NC(=O)CC1Nc2ccccc2NC1=O (stereo not given)
Reply: inactive

Ask: State its Potency on Histone-lysine N-methyltransferase EHMT2 (Homo sapiens) (UniProt Q96KQ7): `CCn1c(C(=O)Nc2cc(Cl)ccc2C)cc2sc(Cl)cc21`
Reply: inactive

Ask: Give the reported Potency for `COc1ccc(S(=O)(=O)NCc2cccnc2)cc1NC(=O)c1ccc(C)cc1` (system: Histone-lysine N-methyltransferase EHMT2 (Homo sapiens) (UniProt Q96KQ7)).
Reply: inactive
